- experimental_system: T1, human DKK1 (human, UniProt O94907 32-266)
- T1 construct: also called huDKK1; hDKK1
- T1 sequence: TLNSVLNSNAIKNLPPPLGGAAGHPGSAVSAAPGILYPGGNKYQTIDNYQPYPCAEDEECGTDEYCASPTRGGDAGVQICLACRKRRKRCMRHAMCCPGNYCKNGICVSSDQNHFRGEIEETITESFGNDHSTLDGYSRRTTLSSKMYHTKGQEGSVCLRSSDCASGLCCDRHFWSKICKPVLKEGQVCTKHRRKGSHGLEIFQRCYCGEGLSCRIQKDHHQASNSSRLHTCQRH
- assay_comment: BiaCore 2000
Form field: koff (one value per entry).
Unit s⁻¹ implied. Number only.

binder	koff / s⁻¹
2.47.1 (antibody, V domains shown, Fully human hybridoma IgG, kappa (Vk)) VH: QVQLQESGPGLVKPSQTLSLTCTVSGGSISSGGYYWSWIRQHPGKGLEWIGDIYYSGSTYYNPSLKSRVTISVDTSKNQFSLKLSSVTAADTAVYYCARDRAYGDYGGDYYYGMDVWGQGTTVTVSS VL: DIVMTQTPLSLPVTPGEPASISCRSSQSLLDSDDGDTYLDWYLQKPGQSPQLLIYTLSYRASGVPDRFSGSGSGTDFTLKISRVEAEDVGVYYCMQRIEFPFTFGPGTKVDIK	0.00092
6.147.4 (antibody, V domains shown, Fully human hybridoma IgG, lambda (Vl)) VH: QVQLVESGGGVVQPGRSLRLSCAASGFTFSRYDMHWVRQAPGKGLEWVAIIFYDGSNKYYADPVKGRFTISRDNSKNTLYLQMNSLRAEDTAVYYCATLAAAFDYWGQGTLVTVSS VL: YVLTQPPSVSVAPGQTARITCGGNNIGSKSVHWYQQKPGQAPVLVVYDDSDRPSEIPERFSGSNSGNTATLTISRVEAGDEADYYCQVWDSSSDHVVFGGGTRLTVL	0.000251
2.20.1 (antibody, V domains shown, Fully human hybridoma IgG, kappa (Vk)) VH: QVQLVESGGGVVQPGRSLRLSCAASGFTFSSYGMHWVRQAPGKGLEWVAVISYDGSDKYYADSVKGRFTISRDNSKNTLYLQMNSLRAEDTAVYYCARDQWGGSPAGPWGQGTLVTVSS VL: DIVMTQTPLSLSVIPGQPASISCKSSQSLLHSDGKTYLYWYLQRPGQPPQLLIYEVSNRFSGVPHRLSGSGSGTDFTLKISRVEAEDVGVYYCMQSIQVPWTFGQGTKVEIK	0.00024

Then this binder:
Lookup result for 5.32.1 (antibody, V domains shown, Fully human hybridoma IgG, kappa (Vk)) VH: QVQLVQSGAEVKKPGASVKVSCKASGFTFTSYDISWVRQATGLGLEWMGWMNPSSGYTGYAQNFQGRVTMTWNTSISTVYMELSSLRSEDTAVYYCARTDYYYYGMDVWGRGTTVTVSS VL: DIQMTQSPSSLSASVGDRVTITCQASQDISKDLNWYQQKPGKAPKLLIYDASNLETGVPSRFSGSGSGTDFTFTISSLQPEDIATYYCQQYDDLPITFGQGTRLEIK ; measured koff: 0.000191
